// data source = the DeepSol protein solubility set

# measurement-protocol: soluble on expression in E. coli; label from the status in PepcDB or PDB records
experimental-endpoint: soluble on expression in E. coli

record_sequence=MPKLTIEGAGTFDVKEGTKLVLAIEDSGVNILHRCGGNARCTTCRVEILAGDFCEASANEKHAMTEKGIEDHLRLSCQMRVHKDIVVRPVLTVENSGLDAGPRPAE experimental_endpoint="soluble on expression in E. coli" value_reported="not soluble"
record_sequence=MENPINELAAAVHDGLGLTYPPIIDMGPQLTREQLLASMSATMRRHKGGPVWLFAYGSLIWRPECTAVESQRGRVHGYHRGLYLWSHEHRGTPEVPGLVFGLDRGGSCTGFAYRLPDDCLEKSLLALWEREMPYPSYRPHWLNCRLEDGRKVQALGFVLERHLPSYAGNLPDSVLSQVLASASGRYGTTRDYVEQTAKALRSHAMPDLNLEARLKRCKSETAAAALEHHHHHH experimental_endpoint="soluble on expression in E. coli" value_reported="not soluble"
record_sequence=MSLGIKAVIFDLDGVIVSTDEYHYRAWKAMADEEGIYFDKRINERLRGVGRMESLEIILEKAKKTYNTKEKIQMTERKNFIYRELLNELTPKHILKGVMNVLETLRAKNIKIAIGSSSKNTSIILEKIKLDKYFDAVADGREIKKSKPNPEVFLLAAKKLKVSPEECLIVEDADAGVEAAIAGGMKVLAVGYASNNIKANYKFKDLSCVDIKEVICKEGHHHHHH experimental_endpoint="soluble on expression in E. coli" value_reported=soluble
record_sequence=SLPIDAVLPALRQALTTRHEAVLEAPPGAGKTTRVPLALLEETWLAGQTILMLEPRRLAARAAAERLASELGEKVGETVGYRIRLESCVGPKTRIEVVTEGILTRCLQDDPALEGVGLLIFDEFHVLPFA experimental_endpoint="soluble on expression in E. coli" value_reported="not soluble"
record_sequence=MGSDKIHHHHHHMNSSQKRVLHVLSGMNRGGAETMVMNLYRKMDKSKVQFDFLTYRNDPCAYDEEILSLGGRLFYVPSIGQSNPLTFVRNVRNAIKENGPFSAVHAHTDFQTGFIALAARLAGVPVRVCHSHNTSWKTGFNWKDRLQLLVFRRLILANATALCACGEDAGRFLFGQSNMERERVHLLPNGIDLELFAPNGQAADEEKAARGIAADRLIIGHVARFHEVKNHAFLLKLAAHLKERGIRFQLVLAGDGPLCGEIEEEARQQNLLSDVLFLGTEERIHELMRTFDVFVMPSLYEGLPVVLVEAQASGLPCIISDSITEKVDAGLGLVTRLSLSEPISVWAETIARAAAAGRPKREFIKETLAQLGYDAQQNVGALLNVYNISTEKDHNR experimental_endpoint="soluble on expression in E. coli" value_reported="not soluble"
record_sequence=MENYLIDNLDRGILEALMGNARTAYAELAKQFGVSPETIHVRVEKMKQAGIITGARIDVSPKQLGYDVGCFIGIILKSAKDYPSALAKLESLDEVTEAYYTTGHYSIFIKVMCRSIDALQHVLINKIQTIDEIQSTETLIVLQNPIMRTIKP experimental_endpoint="soluble on expression in E. coli" value_reported=soluble
record_sequence=MKQSIVSLAQVIRSKNAGPYELVLDILFKTKENYERVKSSGQLTPELIARLYHVEPDFIHRIVWFDPSNAVKIVMPRDIISGNVGDNDVYGAQQHAPLLNMSFDL experimental_endpoint="soluble on expression in E. coli" value_reported=soluble
record_sequence=MPKASDIKKGSAIEHNGKVFFVKEISKLTPSGRAGATLFRMRMYDVATGAKSDESFKADDMINLADFSRRSATFSYVDGNEYVFMDSEDYTPYNFNKEAIEEELLFITEETQGLQILIVDGAPVAIELPSAVDLEIVETAPSIKGASASARTKPATMTTGLTVQVPEYIANGEKVKINTTEHKFMSRALEHHHHHH experimental_endpoint="soluble on expression in E. coli" value_reported="not soluble"

// lookup soluble on expression in E. coli for MEKVHYAAIDVGSNAVRLLIKCVNSEGMEEPLSKVLIMRVPIRLGEDSFTKGYIGEEKTDNMVRLMRAYYEMMQIYRVKDYRACATSAMRDASNAEAVIAQIREKTGIHIDIIDGDEEARLVSDNHIEQIISDGGNYIYLDVGGGSTELTIPAAEIFLEVADITGAKTIIAPIVGLADGIIEDLYIRHQSQPSLEHHHHHH
soluble

Quick one: soluble on expression in E. coli for MSLRLIATEEAVTFQPVVDALRAHSRTDDASLDMILVRDVYGDEPARPAMIGRLSDVTGERLAEMDSNGVDMHLLSLTAPGVQMFDAETGTRLARIANDLMAQTVAANPTRFAGLGTFAPQDPASAAREIERVATQLRLNGLVINSHTNDLYYDDPFFHPVFEAIEASGLALYIHPRAPSKQIDRAFRDYGMNSAIWGYGIETSTNAVRMILSGLFDRFPRLKIVLGHMGEAIPFWLWRLDYMHGNATTFGGAPKLKLKPSEYFRRNFAITTSGVESHAALRYSIEVLGPENVMWAIDYPYQPMAPAVQFIRTAPIPEDVKAMVAGGNAARIFRITEGHHHHHH ?
soluble

I have this sequence here, MMNYRKADMKDISLLVSIRKRQLIDEGIEPNIDIDKELTRYFNNKLANNLLVEWIAEENNQIIATAAIAFIDFPPTYTNKTGRKGYITNMYTEPTSRGNGIATGMLDRLVNEAKERNIHKICLVASKLGRPVYKKYGFQDTDEWLELNLLEHHHHHH , and I need its recorded soluble on expression in E. coli.
soluble

Query: soluble on expression in E. coli; subject: MAHHHHHHMMSRFETSPRDRRYNSAVRSSLFSFVLRRRRNLHDKKKPPLSANGPLTSVVHPRARNHLPDEVNLTTTLVRSCFCINIAPLPARSCASYSPRCSEQTVSRFFPHPFTFRASAIRGHNARLQLRRCTHHFLETPL
not soluble

Requested field: soluble on expression in E. coli. Item: SNAMQKSVLEQLKQVTMVVADTGDFELIKKYKPVDATTNPSLILKAVKEQKYSNLVAETISKVKANNPDLNSDDLVKEIAIEILVSFGIKILDVIEGKVSSEVDARVSFNSATTIDYAKRIIARYESNGIPKDRVLIKIAATWEGIKAAKLLQKEGINCNLTLIFDKAQAKACAEAGVYLVSPFVGRITDWQMQQNNLKTFPAIADDDGVNSVKAIYKLYKSHGFKTIVMGASFRNVEQVIALAGCDALTISPVLLEELKNRDEHLEVKLTKNDDVVTQSPQISEADFRWLMNENAMATHKLAEGIRLFTKDTIELENIIKQNL
soluble
